# test_summary: COS7 lysate on small-molecule microarray, probe aHis, 635 nm (AID 1123);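 further: z-score combines 667nm fluorescence intensity with signal-to-noise per printed compound spot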
# condition_context: COS7 cell lysate, fluorescence, higher = more signal
Parameter threshold = 1. Response is true when composite z-score meets or exceeds it, else false.

smiles_string	cat
[N-]=[N+]=Nc1ccccc1C[C@]1(C(N)=O)COC(c2ccc(OCCCO)cc2)=N1	true
C=C[C@H](C)[C@@H](OC(=O)Nc1ccc(SC)cc1)c1ccc(OCCO)cc1	true
C=CCNC(=O)[C@@H]1[C@H]2C(=O)O[C@H](c3ccccc3)[C@H](c3ccccc3)N2[C@H](c2ccc(O)cc2)[C@@]12C(=O)N(C(=O)OCCOC)c1ccc(C#CCC(C(=O)OC)C(=O)OC)cc12	true
CCCNC(=O)[C@@]1(Sc2ccc(C)cc2)CC(=O)N(Cc2cc(C(F)(F)F)cc(C(F)(F)F)c2)[C@@H]1c1ccc(CO)cc1	false
NCCCCCCNC(=O)[C@@H]1C[C@@H]2C(=O)NCC(=O)N2[C@@H]1c1cccc(OCCO)c1	true
C=CCOC(=O)[C@@H]1[C@H]2C(=O)O[C@H](c3ccccc3)[C@H](c3ccccc3)N2[C@H](c2ccc(OCCOC(=O)[C@H]3C[C@H]4C(=O)N[C@@H](CCCCN(C)C)C(=O)N4[C@H]3c3cccc(OCCO)c3)cc2)[C@@]12C(=O)Nc1ccccc12	false

---

# test_summary: compound binding in COS7 lysate, probe aLAP1, primary screen, cell lysate, small-molecule microarray (AID 1124);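 further: lysate comes from COS7 cells expressing LAP1 and is applied at 0.3 µg/mL; score merges spot fluorescence near 667 nm with signal-to-noise over triplicate slides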
# condition_context: probe aLAP1, fluorescence, higher = more signal
reported_endpoint: composite z-score

molecule	reported_endpoint	assay_value
CC1(C)OB(/C=C\CC(OC(=O)c2ccncc2)c2ccccc2)OC1(C)C (centres undefined)	composite z-score	0.953
COc1cc(Cc2cc3c(c(CCc4ccccc4)n2)[Si](C(C)C)(C(C)C)O[C@H]3c2ccccc2)cc(OC)c1OC	composite z-score	-0.177
C=CCOC(=O)[C@@H]1[C@H]2C(=O)O[C@H](c3ccccc3)[C@H](c3ccccc3)N2[C@H](c2ccc(OCCOC(=O)[C@@H]3C[C@@H]4C(=O)N[C@@H](CC(C)C)C(=O)N4[C@@H]3c3ccc(O)cc3)cc2)[C@@]12C(=O)Nc1ccc(I)cc12	composite z-score	0.166
C=CC[C@]1(C(N)=O)N=C(c2ccc(OCCCO)cc2)O[C@H]1c1ccccc1N=[N+]=[N-]	composite z-score	0.87
COC(=O)[C@@]1(Cc2ccc(F)cc2)[C@H]2c3cc(C(=O)N(C)C)n(CCF)c3C[C@H]2CN1C(=O)c1ccccc1	composite z-score	0.89
CCOC(=O)C1=CCC(c2cccn2C(=O)OC(C)(C)C)N(S(=O)(=O)c2ccc(C)cc2)C1 (centres undefined)	composite z-score	0.421
CN(C)CCCCCCNC(=O)[C@@H]1C[C@@H]2C(=O)N[C@@H](CCCC[N+](C)(C)C)C(=O)N2[C@@H]1c1cccc(OCCO)c1	composite z-score	0.98
CCc1cccc(NC(=O)O[C@H]2[C@H](OC(=O)Nc3ccccc3-c3ccccc3)[C@H](OC(=O)Nc3ccccc3-c3ccccc3)[C@@H](OC)O[C@@H]2CO)c1	composite z-score	0.0611
COCCOC(=O)N1C(=O)[C@@]2(c3cc(C#CCNC(N)=O)ccc31)[C@H](c1ccccc1OCCO)N1[C@H](c3ccccc3)[C@H](c3ccccc3)OC(=O)[C@H]1[C@@H]2C(=O)N1CCCCCCC1	composite z-score	1.41
COC(=O)C1(CC(C)C)C=C2C(=C(C)C(=O)C2C)CN1 (centres undefined)	composite z-score	0.311
COC(=O)[C@@]1(Cc2ccc(OC)cc2)[C@@H]2[C@@H](CC(=O)[C@H]2CC(=O)C(=O)N(C)C)CN1C(=O)c1ccccc1	composite z-score	0.505
CCOC(=O)C[C@H]1[C@H](OC(=O)c2cc3ccccc3oc2=O)[C@@H](NC(=O)c2ccc(-c3ccccc3)cc2)c2cc(OCCCO)ccc2N1C(=O)Cc1ccc(OC)cc1	composite z-score	0.774
CC(C)c1ccc(NN2C(C(O)c3ccccc3)C=CC3C(=O)N(c4ccccc4)C(=O)C32)cc1 (centres undefined)	composite z-score	-0.191
CC(C)C[C@@H]1NC(=O)[C@H]2C[C@@H](C(=O)O)[C@@H](c3cccc(OCCO)c3)N2C1=O	composite z-score	0.327

---

# Tested on: Chordin-like protein 2 (CHRDL2)
# test_summary: CHRDL2 small-molecule binders, primary screen, biochemical, small-molecule microarray, 635 nm fluorescence (AID 1126);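 further: printed compound slides probed with Chrdl2 protein at 4 µg/mL for 1 h at 4 C; score merges 667 nm emission intensity with signal to noise over three replicate slides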
# condition_context: small-molecule microarray binding, fluorescence 635 nm; higher = more signal
Parameter threshold = -0.2. Response is Y when composite z-score meets or exceeds it, else N.

molecule	cat
CCN1C(=O)C2CC(=O)C3C(CN(S(=O)(=O)c4ccc(C)cc4)C3c3ccc(C)cc3)C2C1=O (centres undefined)	N
C=C(CC1([C@@H](NP(=O)(c2ccccc2)c2ccccc2)[C@H]2C[C@@H]2CCCC)CC1)c1cccc(OC)c1	N
COC(=O)C(CC#Cc1ccc2c(c1)[C@]1(C(=O)N2)[C@H](C(=O)N2CCCCCCC2)[C@H]2C(=O)O[C@H](c3ccccc3)[C@H](c3ccccc3)N2[C@@H]1c1ccc(OCCO)cc1)C(=O)OC	Y
COc1ccc([Si](C)(C)[C@H]2[C@H](CC(=O)N3CCC[C@H]3CO)O[C@@]3(C(=O)N(C)c4ccccc43)[C@@H]2C)cc1	Y
C=C(CCCC)/C(=C/C[C@@H](OC(C)=O)c1cccc(OCCO)c1)c1cc(C(=O)OC)ccc1OC	Y
C=CC[C@]1(C(N)=O)N=C(c2ccc(OCCCO)cc2)O[C@H]1c1ccccc1N=[N+]=[N-]	Y
COCCOC(=O)N1C(=O)[C@@]2(c3cc(C#CCNC(N)=O)ccc31)[C@H](C(=O)N1CCN(c3ncccn3)CC1)[C@H]1C(=O)O[C@H](c3ccccc3)[C@H](c3ccccc3)N1[C@@H]2c1ccc(O)cc1	N
CC(C)c1ccc(NN2C(C(O)C3CCCCC3)C=CC3C(=O)N(c4ccccc4)C(=O)C32)cc1 (centres undefined)	N
COc1ccc([Si](C)(C)[C@@H]2[C@@H](CC(=O)N(CCO)Cc3ccccc3)O[C@]3(C(=O)N(Cc4cccc(I)c4)c4ccccc43)[C@H]2C)cc1	Y
C=CC[C@H](OC(=O)Nc1ccc(SC)cc1)c1ccc(O)c(F)c1	Y
CN1C(=O)C2C=CC(C(O)c3cccs3)N(N(c3ccccc3)c3ccccc3)C2C1=O (centres undefined)	N
CO[C@H]1O[C@H](CO)[C@@H](OC(=O)Nc2cccc(F)c2)[C@H](OC(=O)Nc2ccc3c(c2)OCO3)[C@@H]1OC(=O)Nc1ccc2c(c1)OCO2	Y
CC[C@@H](O[Si](C#C[Si](C(C)C)(C(C)C)C(C)C)(C(C)C)C(C)C)c1cn([C@H](CO)Cc2ccccc2)nn1	Y
COc1ccc(C#Cc2ccc3c(c2)[C@]2(C(=O)N3)[C@H](c3ccccc3OCCO)N3[C@H](c4ccccc4)[C@H](c4ccccc4)OC(=O)[C@H]3[C@@H]2C(=O)NC[C@H](O)c2ccccc2)cc1	Y

---

# test_summary: CREB reporter modulators under forskolin, primary screen, cell-based, PC12, CRE-LacZ reporter, forskolin-stimulated (AID 1146);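 further: PC12 cells with 6xCRE LacZ reporter stimulated by forskolin 10 µM; beta-galactosidase reporter signal reflecting CREB driven transcription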
# condition_context: luminescence, 4.5 h, higher = more signal, called active from +8 up or from −8 down
Parameter threshold = 0.01. Response is fulfilled when z-score meets or exceeds it, else not fulfilled.

compound	cat
COc1ccc([Si](C)(C)[C@H]2[C@H](CC(=O)N3CCC[C@H]3CO)O[C@@]3(C(=O)N(C)c4ccccc43)[C@@H]2C)cc1	fulfilled
CC[C@@H](O[Si](C#C[Si](C(C)C)(C(C)C)C(C)C)(C(C)C)C(C)C)c1cn([C@H](C)c2ccccc2)nn1	fulfilled
O=C1C2C=CC(C(O)C(c3ccccc3)c3ccccc3)N(Nc3ccccc3F)C2C(=O)N1c1ccccc1 (centres undefined)	fulfilled
C=C(CC1([C@@H](NP(=O)(c2ccccc2)c2ccccc2)[C@H]2C[C@@H]2CCCC)CC1)c1cccc(OC)c1	fulfilled
Cc1ccc(S[C@]2(C(=O)NC(C)C)CC(=O)N(Cc3ccccc3)[C@@H]2c2ccc(CO)cc2I)cc1	fulfilled
C=CCOC(=O)[C@H]1[C@@H]2C(=O)O[C@@H](c3ccccc3)[C@@H](c3ccccc3)N2[C@@H](c2ccc(OCCOC(=O)[C@H]3C[C@H]4C(=O)NCC(=O)N4[C@H]3c3cccc(OCCO)c3)cc2)[C@]12C(=O)Nc1ccc(I)cc12	not fulfilled
CC(C)C(=C=CC[C@H](O)c1cccc(OCCO)c1)C[C@H](O)c1ccccn1	fulfilled
COC(=O)[C@]1(Cc2ccccc2CN=[N+]=[N-])N=C(c2ccc(OCCCO)cc2)O[C@@H]1c1ccccc1N=[N+]=[N-]	fulfilled
C=CC[C@]1(C(N)=O)N=C(c2ccc(OCCCO)cc2)O[C@H]1c1ccccc1N=[N+]=[N-]	not fulfilled
COc1cccc(C)c1NC(=O)O[C@H]1[C@H](OC(=O)Nc2ccc3c(c2)OCO3)[C@H](OC(=O)Nc2ccc3c(c2)OCO3)[C@@H](OC)O[C@@H]1CO	not fulfilled
COC(=O)C(CC#Cc1ccc2c(c1)[C@]1(C(=O)N2)[C@H](C(N)=O)[C@H]2C(=O)O[C@H](c3ccccc3)[C@H](c3ccccc3)N2[C@@H]1c1ccccc1OCCO)C(=O)OC	not fulfilled
C=C(COC)C(=O)CC[C@@H](OC(=O)c1ccccc1-c1ccccc1C(=O)O)c1ccccc1OCCO	fulfilled
COC(=O)[C@@]1(Cc2ccc(OC)cc2)[C@H]2c3cc(C(=O)N(C)C)n(Cc4c(CO)[nH]cc(C)c4=O)c3C[C@H]2CN1C(=O)c1ccccc1	fulfilled
